Target: T1, orthogonal hCD122 receptor (hoRb), hCD122 with H133D and Y134F (human, UniProt P14784 27-550)
T1 sequence: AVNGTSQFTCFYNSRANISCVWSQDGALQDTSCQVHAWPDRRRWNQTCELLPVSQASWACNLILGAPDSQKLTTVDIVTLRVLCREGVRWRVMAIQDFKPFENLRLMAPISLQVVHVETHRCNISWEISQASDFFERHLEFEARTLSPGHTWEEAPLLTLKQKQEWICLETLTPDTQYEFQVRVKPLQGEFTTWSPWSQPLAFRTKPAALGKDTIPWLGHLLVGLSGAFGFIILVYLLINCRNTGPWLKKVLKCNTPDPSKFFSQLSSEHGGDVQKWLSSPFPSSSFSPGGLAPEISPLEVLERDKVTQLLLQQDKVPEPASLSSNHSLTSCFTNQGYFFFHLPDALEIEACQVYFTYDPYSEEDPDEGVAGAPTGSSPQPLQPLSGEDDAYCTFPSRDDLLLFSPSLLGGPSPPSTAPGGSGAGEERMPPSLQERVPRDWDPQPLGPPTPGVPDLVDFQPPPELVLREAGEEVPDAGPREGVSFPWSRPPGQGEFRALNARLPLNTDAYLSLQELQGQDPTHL
Assay: cell-based or functional assay
READOUT: Relative Proliferation Fold Change NKL 1:10 (fold)

Example entries begin here.
| BINDER | VALUE REPORTED |
| --- | --- |
| K97Q, SQVLKA (ligand) APTSSSTKKTQLQLSQLLVLLKAILNGINNYKNPKLTRMLTFKFYMPKKATELKHLQCLEEELKPLEEVLNLAQSKNFHLRPRDLISNINVIVLELQGSETTFMCEYADETATIVEFLNRWITFCQSIISTLT | 3.64 |
| L18I, SQVLKA (ligand) APTSSSTKKTQLQLSQLIVLLKAILNGINNYKNPKLTRMLTFKFYMPKKATELKHLQCLEEELKPLEEVLNLAQSKNFHLRPRDLISNINVIVLELKGSETTFMCEYADETATIVEFLNRWITFCQSIISTLT | 1.38 |
| T3D, SQVLKA (ligand) APDSSSTKKTQLQLSQLLVLLKAILNGINNYKNPKLTRMLTFKFYMPKKATELKHLQCLEEELKPLEEVLNLAQSKNFHLRPRDLISNINVIVLELKGSETTFMCEYADETATIVEFLNRWITFCQSIISTLT | 4.03 |
| ΔT7, SQVLKA (ligand) APTSSSKKTQLQLSQLLVLLKAILNGINNYKNPKLTRMLTFKFYMPKKATELKHLQCLEEELKPLEEVLNLAQSKNFHLRPRDLISNINVIVLELKGSETTFMCEYADETATIVEFLNRWITFCQSIISTLT | 3.32 |
| Q74H, SQVLKA (ligand) APTSSSTKKTQLQLSQLLVLLKAILNGINNYKNPKLTRMLTFKFYMPKKATELKHLQCLEEELKPLEEVLNLAHSKNFHLRPRDLISNINVIVLELKGSETTFMCEYADETATIVEFLNRWITFCQSIISTLT | 3.18 |

P. SQVLKL (ligand) APTSSSTKKTQLQLSQLLVLLKLILNGINNYKNPKLTRMLTFKFYMPKKATELKHLQCLEEELKPLEEVLNLAQSKNFHLRPRDLISNINVIVLELKGSETTFMCEYADETATIVEFLNRWITFCQSIISTLT
Q. SQVLEA (ligand) APTSSSTKKTQLQLSQLLVLLEAILNGINNYKNPKLTRMLTFKFYMPKKATELKHLQCLEEELKPLEEVLNLAQSKNFHLRPRDLISNINVIVLELKGSETTFMCEYADETATIVEFLNRWITFCQSIISTLT
Query: Smaller Relative Proliferation Fold Change NKL 1:10 value, P vs Q ? Answer by quoting the chosen item's label.
Result: Q
(Q: 1.19 fold, P: 4.38 fold)

Where these numbers come from: patent US20210196796A1
